Biological target: human LAIR-1-CD3ζ chimeric receptor on NFAT-GFP reporter cells (human, UniProt P20963 31-164, limits assumed)
Sequence (P20963 other isoform, or with tags, fused parts or gaps mutant limits assumed): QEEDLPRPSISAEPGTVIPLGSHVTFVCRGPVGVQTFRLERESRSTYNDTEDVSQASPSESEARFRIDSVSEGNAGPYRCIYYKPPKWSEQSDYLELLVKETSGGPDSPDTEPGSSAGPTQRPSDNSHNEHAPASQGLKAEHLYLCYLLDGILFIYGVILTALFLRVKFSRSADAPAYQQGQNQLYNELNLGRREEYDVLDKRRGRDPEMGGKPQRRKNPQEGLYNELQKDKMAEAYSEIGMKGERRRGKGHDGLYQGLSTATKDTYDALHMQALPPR
Assay: cell-based or functional assay
REPORTED_PROPERTY: IC50 (read off the curve): % GFP+ human LAIR-1 reporter cells on coated collagen 1

anti-LAIR-1 antibody ch47H1 (antibody, V domains shown, The prefix 'ch' is not defined; detected with anti-human Fc secondary antibody) VH: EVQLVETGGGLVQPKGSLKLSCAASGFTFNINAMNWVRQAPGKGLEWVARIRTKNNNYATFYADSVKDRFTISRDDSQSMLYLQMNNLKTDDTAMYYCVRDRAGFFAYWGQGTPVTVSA VL: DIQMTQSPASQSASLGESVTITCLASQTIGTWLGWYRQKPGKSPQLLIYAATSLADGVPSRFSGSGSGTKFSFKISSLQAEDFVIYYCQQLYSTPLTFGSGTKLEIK	~0.09 nM
anti-LAIR-1 antibody ch108D10 (antibody, V domains shown) VH: EVQLVETGGGLVQPKGSLKLSCAASGFTFNINAMNWVRQAPGKGLEWVARIRTKNNNYATYYADSVKDRFTISRDDSESMLYLQMNNLKTEDTAMYYCVRDRYGGAMAYWGQGTSVTVSS VL: DIQMTQSSSSFSVSLGDRVTITCKASEDIYNRLAWYQQKPGNVPRLLISSATSLETGVPSRFSGSGSGKDYTLSLTSLQSEDVATYYCQQYWTIPYTFGGGTKLEIK	~0.05 nM

Field: next binder
IC50 (read off the curve): % GFP+ human LAIR-1 reporter cells on coated collagen 1 in this record for anti-LAIR-1 antibody ch62G10 (antibody, V domains shown, The prefix 'ch' is not defined) VH: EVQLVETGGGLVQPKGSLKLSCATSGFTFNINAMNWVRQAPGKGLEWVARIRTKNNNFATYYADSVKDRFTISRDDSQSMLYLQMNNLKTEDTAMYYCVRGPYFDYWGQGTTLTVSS VL: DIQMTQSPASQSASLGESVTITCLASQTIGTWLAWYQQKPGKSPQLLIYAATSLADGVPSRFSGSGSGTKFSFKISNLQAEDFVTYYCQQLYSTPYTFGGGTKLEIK : ~0.1 nM
